Give measured Ki for each item. Keep answers brief.
Target: human PDE2A1 (Homo sapiens (Human), UniProt O00408)
Sequence (O00408 other isoform, or with tags, fused parts or gaps): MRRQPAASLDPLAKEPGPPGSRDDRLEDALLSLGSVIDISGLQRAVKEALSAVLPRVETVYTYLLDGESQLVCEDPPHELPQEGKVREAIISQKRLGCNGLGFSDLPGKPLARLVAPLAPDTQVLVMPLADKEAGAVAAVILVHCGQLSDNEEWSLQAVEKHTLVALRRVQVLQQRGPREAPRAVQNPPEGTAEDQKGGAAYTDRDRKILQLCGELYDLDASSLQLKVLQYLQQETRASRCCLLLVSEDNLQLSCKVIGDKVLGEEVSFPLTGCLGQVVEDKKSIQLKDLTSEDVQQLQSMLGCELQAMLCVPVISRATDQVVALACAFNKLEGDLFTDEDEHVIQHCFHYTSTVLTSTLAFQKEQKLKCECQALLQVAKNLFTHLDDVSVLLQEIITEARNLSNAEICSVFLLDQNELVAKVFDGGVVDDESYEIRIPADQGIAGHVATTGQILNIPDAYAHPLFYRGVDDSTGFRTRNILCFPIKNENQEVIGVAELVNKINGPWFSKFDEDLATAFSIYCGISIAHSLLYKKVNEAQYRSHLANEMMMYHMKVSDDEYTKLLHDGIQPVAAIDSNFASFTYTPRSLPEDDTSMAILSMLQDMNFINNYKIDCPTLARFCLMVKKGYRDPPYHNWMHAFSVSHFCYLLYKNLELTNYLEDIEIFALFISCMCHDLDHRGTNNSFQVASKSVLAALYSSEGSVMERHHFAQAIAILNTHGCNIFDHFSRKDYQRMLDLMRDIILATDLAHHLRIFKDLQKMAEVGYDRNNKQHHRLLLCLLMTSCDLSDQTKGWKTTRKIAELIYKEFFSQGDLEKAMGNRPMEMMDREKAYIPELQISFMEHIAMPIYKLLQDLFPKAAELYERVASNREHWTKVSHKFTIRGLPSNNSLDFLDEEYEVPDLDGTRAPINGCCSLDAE
Experiment: IMAP FP PDE selectivity panel, human PDE2A1
Type: biochemical
Conditions: Human PDE2, Lab A; read-out: Human PDE2 Ki (nM) - Lab A
Give bare numbers, in nM.

Molecule: C[C@@H](NC(=O)c1cc(=O)[nH]c(Cc2ccc(F)cc2)n1)c1ccc(C(F)(F)F)cc1
Unit label: nM
Test value: 24
--
Molecule: CC(NC(=O)c1cc(=O)[nH]c(-c2ccccc2)n1)c1ccc(C2CC2)cc1 (centres unmarked)
Unit label: nM
Test value: 9.4
--
Molecule: Cc1nc(C(=O)N[C@@H](c2ccc(SC(F)(F)F)c(F)c2)C2CC2)cc(=O)[nH]1
Unit label: nM
Test value: 7.8
--
Molecule: CC[C@@H](NC(=O)c1cc(=O)[nH]c(C)n1)c1ccc(OC(F)(F)F)cc1
Unit label: nM
Test value: 15
--
Molecule: C[C@@H](NC(=O)c1cc(=O)[nH]c(C2CC2)n1)c1ccc(SC(F)(F)F)cc1
Unit label: nM
Test value: 3.5
--
Molecule: CC(NC(=O)c1cc(=O)[nH]c(-c2ccccc2)n1)c1ccc(C(F)(F)F)cn1 (centres unmarked)
Unit label: nM
Test value: 117

Next item in the queue.
IN: Entry `Cc1nc(C(=O)N[C@H](C)c2ccc(OC(F)(F)F)c(F)c2)cc(=O)[nH]1` : reported Ki = ?
OUT: 8.6
